The reported measurements were obtained from the supplement of paper PMC10567573.

B1: C22orf15 (parent)
chain: PRGRAHLLPNPYQQDFLGLPEELR

variants of: B1; test: protein stability index of a GFP-peptide fusion (GPS, HEK-293T) (PSI 1-6); higher = more stable; conditions: c terminus: a fixed tail appended;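 further: lentivirally expressed fusions sorted by FACS into six bins by GFP to DsRed ratio, PSI derived from sequencing read proportions per bin multiplied by bin number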
Catalogue of variants with associated protein stability index
Give your answer as a number; write no unit.

mutation-name: H6P
protein stability index: 3.93

mutation-name: L19W
protein stability index: 3.75

Could you now look at the following variant, please?
[in] Specify reported protein stability index for the variant shown: L7P
[out] 4.06
